Where do the numbers come from? From patent US20160194336A1.

target.under.test: p38αR186A (Homo sapiens, UniProt Q16539, R186A)
Construct: made in house; host or cells: E. coli XL10-Gold
Sequence (Q16539 whole entry R186A): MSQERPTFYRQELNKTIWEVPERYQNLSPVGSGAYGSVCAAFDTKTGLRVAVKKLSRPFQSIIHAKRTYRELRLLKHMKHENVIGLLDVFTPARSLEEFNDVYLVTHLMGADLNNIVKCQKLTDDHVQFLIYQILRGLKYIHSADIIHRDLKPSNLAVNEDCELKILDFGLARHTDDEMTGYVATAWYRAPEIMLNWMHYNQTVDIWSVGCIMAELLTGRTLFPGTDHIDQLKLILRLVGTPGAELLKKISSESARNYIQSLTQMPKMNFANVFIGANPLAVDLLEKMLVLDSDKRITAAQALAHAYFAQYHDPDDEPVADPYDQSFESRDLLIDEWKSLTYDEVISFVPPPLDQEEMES
experimental.details: site-mutated p38 phosphorylation cascade assay, R186A mutant
Type: biochemical
experimental.conditions: compound 10 uM
metric.name: inhibition at 10 µM (%)
The reply should be a number in %, with the unit left off.

// known answers, use as guide
• CCOC(=O)c1ccc(Nc2nc3nonc3nc2N2CCC(Cc3ccccc3)CC2)cc1 = 20
• CCOC(=O)c1ccc(Nc2nc3nonc3nc2N2CCN(Cc3cccc(Cl)c3)CC2)cc1 = 22
• Cc1cc(C(=O)NCC(C)C)ccc1Nc1nc2nonc2nc1N1CCC(Cc2ccccc2)CC1 = 48

Now for another entry.
Give the reported inhibition at 10 µM for this compound. O=C([O][Na+])c1ccc(Nc2nc3nonc3nc2N2CCC(Cc3ccccc3)CC2)cc1
19

###

Tested on: THP-1 cells
experimental.details: survival of monocytes with LPS
Type: cell-based, human
experimental.conditions: 1 uM
Documented Cell survival across a set of compounds
The reply should be a number in %, with the unit left off.

// known answers, use as guide
• CCOC(=O)c1ccc(Nc2nc3nonc3nc2NN=Cc2cccc3ccccc23)cc1 [Compound 12] = 97
• CCOC(=O)c1ccc(Nc2nc3nonc3nc2N2CCC(Cc3ccccc3)CC2)cc1 [Compound 1] = 96
• CCOC(=O)c1ccc(Nc2nc3nonc3nc2N2CCC(Sc3ccc(C)cc3)CC2)cc1 [Compound 15] = 92

Give the reported Cell survival for this compound. CCOC(=O)c1ccc(Nc2nc3nonc3nc2Nc2ccc(Oc3ccncc3)cc2)cc1 [Compound 27]
99

###

Test system: THP-1 cells
experimental.details: survival of monocytes with LPS
Type: cell-based, human
experimental.conditions: 10 uM
metric.name: Cell survival
Form entry: enter the amount, then its unit.

* O=C([O][Na+])c1ccc(Nc2nc3nonc3nc2N2CCC(Cc3ccccc3)CC2)cc1 [Compound 30] | 93%
* CCOC(=O)c1ccc(Nc2nc3nonc3nc2N2CCC(Oc3ccncc3)CC2)cc1 [Compound 33] | 97%
* COC(=O)c1ccc(Nc2nc3nonc3nc2N2CCC(Oc3ccc(Cl)cc3)CC2)cc1 [Compound 31] | 92%
* CCOC(=O)c1ccc(Nc2nc3nonc3nc2N2CCC(Sc3ccc(C)cc3)CC2)cc1 [Compound 15] | 97%

Give the reported Cell survival for this compound. CCOC(=O)c1ccc(Nc2nc3nonc3nc2N2CCC(Oc3ccccc3OC)CC2)cc1 [Compound 16]
93%

Give the reported Cell survival for this compound. CCOC(=O)c1ccc(Nc2nc3nonc3nc2N2CCN(Cc3cccc(Cl)c3)CC2)cc1 [Compound 13]
86%

Give the reported Cell survival for this compound. CC(C)NC(=O)c1cccc(Nc2nc3nonc3nc2N2CCC(Cc3ccccc3)CC2)c1 [Compound 20]
81%

###

Documented Cell survival across a set of compounds
Tested on: THP-1 cells
experimental.details: survival of monocytes with LPS
Assay type: cell-based, human
experimental.conditions: 0.1 uM
The reply should be a number in %, with the unit left off.

// known answers, use as guide
* Cc1ccc(SC2CCN(c3nc4nonc4nc3-c3cccc(C(=O)OC(C)C)c3)CC2)cc1 [Compound 22] | 97
* CCOC(=O)c1ccc(Nc2nc3nonc3nc2N2CCC(Oc3ccncc3)CC2)cc1 [Compound 33] | 100
* CCCNC(=O)c1ccc(Nc2nc3nonc3nc2N2CCC(Sc3ccc(C)cc3)CC2)cc1 [Compound 23] | 96
* O=C([O][Na+])c1ccc(Nc2nc3nonc3nc2N2CCC(Cc3ccccc3)CC2)cc1 [Compound 30] | 99
* CCOC(=O)c1ccc(Nc2nc3nonc3nc2N2CCC(Oc3ccccc3OC)CC2)cc1 [Compound 16] | 88

Give the reported Cell survival for this compound. CCOC(=O)c1ccc(Nc2nc3nonc3nc2N2CCC(Oc3ccc(Cl)cc3)CC2)cc1 [Compound 25]
88

Give the reported Cell survival for this compound. O=C(O)c1ccc(Nc2nc3nonc3nc2N2CCC(Cc3ccccc3)CC2)cc1 [Compound 29]
103

Give the reported Cell survival for this compound. CCOC(=O)c1ccc(Nc2nc3nonc3nc2Nc2ccc(Oc3ccncc3)cc2)cc1 [Compound 27]
103

Give the reported Cell survival for this compound. CC(C)NC(=O)c1cccc(Nc2nc3nonc3nc2N2CCC(Cc3ccccc3)CC2)c1 [Compound 20]
101

###

target.under.test: p38αR186A (Homo sapiens, UniProt Q16539, R186A)
Construct: made in house; host or cells: E. coli XL10-Gold
experimental.details: site-mutated p38 phosphorylation cascade assay, R186A mutant
Type: biochemical
experimental.conditions: compound 10 uM
Documented inhibition at 10 µM across a set of compounds
The reply should be a number in %, with the unit left off.

• Cc1ccc(SC2CCN(c3nc4nonc4nc3-c3cccc(C(=O)OC(C)C)c3)CC2)cc1 = 16
• CCOC(=O)c1ccc(Nc2nc3nonc3nc2Nc2ccc(Oc3ccncc3)cc2)cc1 = 72
• COC(=O)c1ccc(Nc2nc3nonc3nc2N2CCC(Oc3ccc(Cl)cc3)CC2)cc1 = 35

With p38αR186A (Homo sapiens, UniProt Q16539, R186A) as the test system, provide measured inhibition at 10 µM for this compound: CCOC(=O)c1ccc(Nc2nc3nonc3nc2N2CCC(Oc3ccc(Cl)cc3)CC2)cc1
14

With p38αR186A (Homo sapiens, UniProt Q16539, R186A) as the test system, provide measured inhibition at 10 µM for this compound: CCCNC(=O)c1ccc(Nc2nc3nonc3nc2N2CCC(Cc3ccccc3)CC2)cc1
35

With p38αR186A (Homo sapiens, UniProt Q16539, R186A) as the test system, provide measured inhibition at 10 µM for this compound: CCOC(=O)c1ccc(Nc2nc3nonc3nc2NN=Cc2cccc3ccccc23)cc1
39

With p38αR186A (Homo sapiens, UniProt Q16539, R186A) as the test system, provide measured inhibition at 10 µM for this compound: CCOC(=O)c1ccc(Nc2nc3nonc3nc2N2CCC(C(=O)c3ccccc3)CC2)cc1
19

With p38αR186A (Homo sapiens, UniProt Q16539, R186A) as the test system, provide measured inhibition at 10 µM for this compound: CCOC(=O)c1ccc(Nc2nc3nonc3nc2N2CCC(Oc3ccccc3OC)CC2)cc1
15

###

Test system: TNF-α secretion, THP-1 cells
experimental.details: Inhibition of TNF-α secretion by LPS-stimulated THP-1
Type: cell-based
experimental.conditions: Homo sapiens, THP-1, 3 h; 0.1 uM; monocytes with LPS; read-out: TNF abetment
metric.name: inhibition at 0.1 µM (%)
The reply should be a number in %, with the unit left off.

// known answers, use as guide
• CCOC(=O)c1ccc(Nc2nc3nonc3nc2N2CCC(Oc3ccncc3)CC2)cc1 = 21
• O=C(O)c1ccc(Nc2nc3nonc3nc2N2CCC(Cc3ccccc3)CC2)cc1 = 7
• CCOC(=O)c1ccc(Nc2nc3nonc3nc2Nc2ccc(C(=O)c3ccccc3)cc2)cc1 = 27
• Cc1ccc(SC2CCN(c3nc4nonc4nc3-c3cccc(C(=O)OC(C)C)c3)CC2)cc1 = -2
• CCOC(=O)c1ccc(NNc2nc3nonc3nc2N2CCC(Cc3ccccc3)CC2)cc1 = -23

Give the reported inhibition at 0.1 µM for this compound. COC(=O)c1ccc(Nc2nc3nonc3nc2N2CCC(Oc3ccc(Cl)cc3)CC2)cc1
20

Give the reported inhibition at 0.1 µM for this compound. O=C([O][Na+])c1ccc(Nc2nc3nonc3nc2N2CCC(Cc3ccccc3)CC2)cc1
12

Give the reported inhibition at 0.1 µM for this compound. CC(C)NC(=O)c1cccc(Nc2nc3nonc3nc2N2CCC(Cc3ccccc3)CC2)c1
-9

###

Documented Cell survival across a set of compounds
Tested on: THP-1 cells
experimental.details: survival of monocytes with LPS
Type: cell-based, human
experimental.conditions: 1 uM
The reply should be a number in %, with the unit left off.

• CCOC(=O)c1ccc(Nc2nc3nonc3nc2N2CCN(Cc3cccc(Cl)c3)CC2)cc1 [Compound 13] = 93
• CC(C)NC(=O)c1ccc(Nc2nc3nonc3nc2N2CCC(Cc3ccccc3)CC2)cc1 [Compound 18] = 83
• CCOC(=O)c1ccc(Nc2nc3nonc3nc2N2CCC(Sc3ccc(Cl)cc3)CC2)cc1 [Compound 28] = 87
• CCCNC(=O)c1ccc(Nc2nc3nonc3nc2N2CCC(Cc3ccccc3)CC2)cc1 [Compound 19] = 97

Give the reported Cell survival for this compound. COC(=O)c1ccc(Nc2nc3nonc3nc2N2CCC(Oc3ccc(Cl)cc3)CC2)cc1 [Compound 31]
100

Give the reported Cell survival for this compound. CCOC(=O)c1ccc(Nc2nc3nonc3nc2N2CCC(Oc3ccccc3OC)CC2)cc1 [Compound 16]
95

###

target.under.test: p38αR189A (Homo sapiens, UniProt Q16539, R189A)
Construct: made in house; host or cells: E. coli XL10-Gold
Sequence (Q16539 whole entry R189A): as the sequence (Q16539 whole entry R186A) above, with A186R, R189A counted along it
experimental.details: site-mutated p38 phosphorylation cascade assay, R189A mutant
Type: biochemical
experimental.conditions: compound 10 uM
Documented inhibition at 10 µM across a set of compounds
Form entry: enter the amount, then its unit.

// known answers, use as guide
• CCOC(=O)c1ccc(Nc2nc3nonc3nc2Nc2ccc(C(=O)c3ccccc3)cc2)cc1 = 28%
• O=C([O][Na+])c1ccc(Nc2nc3nonc3nc2N2CCC(Cc3ccccc3)CC2)cc1 = 9%
• CCOC(=O)c1ccc(Nc2nc3nonc3nc2N2CCN(Cc3ccccc3C)CC2)cc1 = 17%
• COC(=O)c1ccc(Nc2nc3nonc3nc2N2CCC(Oc3ccc(Cl)cc3)CC2)cc1 = 27%
• O=C(O)c1ccc(Nc2nc3nonc3nc2N2CCC(Cc3ccccc3)CC2)cc1 = 6%

With p38αR189A (Homo sapiens, UniProt Q16539, R189A) as the test system, provide measured inhibition at 10 µM for this compound: CCOC(=O)c1ccc(Nc2nc3nonc3nc2N2CCC(Oc3ccccc3OC)CC2)cc1
17%

With p38αR189A (Homo sapiens, UniProt Q16539, R189A) as the test system, provide measured inhibition at 10 µM for this compound: CCOC(=O)c1ccc(Nc2nc3nonc3nc2N2CCC(Sc3ccc(C)cc3)CC2)cc1
20%

With p38αR189A (Homo sapiens, UniProt Q16539, R189A) as the test system, provide measured inhibition at 10 µM for this compound: CCCNC(=O)c1ccc(Nc2nc3nonc3nc2N2CCC(Sc3ccc(C)cc3)CC2)cc1
26%

With p38αR189A (Homo sapiens, UniProt Q16539, R189A) as the test system, provide measured inhibition at 10 µM for this compound: CCOC(=O)N1CCN(C2=Nc3nnnn3C3CC4CN(Cc5ccccc5)CCC4C23)CC1 (centres unmarked)
9%

With p38αR189A (Homo sapiens, UniProt Q16539, R189A) as the test system, provide measured inhibition at 10 µM for this compound: Cc1ccc(SC2CCN(c3nc4nonc4nc3-c3cccc(C(=O)OC(C)C)c3)CC2)cc1
6%

With p38αR189A (Homo sapiens, UniProt Q16539, R189A) as the test system, provide measured inhibition at 10 µM for this compound: CC(C)NC(=O)c1cccc(Nc2nc3nonc3nc2N2CCC(Cc3ccccc3)CC2)c1
22%

With p38αR189A (Homo sapiens, UniProt Q16539, R189A) as the test system, provide measured inhibition at 10 µM for this compound: CC(C)NC(=O)c1ccc(Nc2nc3nonc3nc2N2CCC(Cc3ccccc3)CC2)cc1
33%

With p38αR189A (Homo sapiens, UniProt Q16539, R189A) as the test system, provide measured inhibition at 10 µM for this compound: CCOC(=O)c1ccc(Nc2nc3nonc3nc2N2CCC(C(=O)c3ccccc3)CC2)cc1
13%

With p38αR189A (Homo sapiens, UniProt Q16539, R189A) as the test system, provide measured inhibition at 10 µM for this compound: CCOC(=O)c1ccc(Nc2nc3nonc3nc2NN=Cc2cccc3ccccc23)cc1
14%

With p38αR189A (Homo sapiens, UniProt Q16539, R189A) as the test system, provide measured inhibition at 10 µM for this compound: CCOC(=O)c1ccc(Nc2nc3nonc3nc2N2CCC(Cc3ccccc3)CC2)cc1
25%

With p38αR189A (Homo sapiens, UniProt Q16539, R189A) as the test system, provide measured inhibition at 10 µM for this compound: CCOC(=O)c1ccc(Nc2nc3nonc3nc2N2CCC(Sc3ccc(Cl)cc3)CC2)cc1
27%

With p38αR189A (Homo sapiens, UniProt Q16539, R189A) as the test system, provide measured inhibition at 10 µM for this compound: CCOC(=O)c1ccc(Nc2nc3nonc3nc2N2CCC(Oc3ccc(Cl)cc3)CC2)cc1
30%

With p38αR189A (Homo sapiens, UniProt Q16539, R189A) as the test system, provide measured inhibition at 10 µM for this compound: CCOC(=O)c1ccc(NNc2nc3nonc3nc2N2CCC(Cc3ccccc3)CC2)cc1
39%

With p38αR189A (Homo sapiens, UniProt Q16539, R189A) as the test system, provide measured inhibition at 10 µM for this compound: CCCNC(=O)c1ccc(Nc2nc3nonc3nc2N2CCC(Cc3ccccc3)CC2)cc1
32%

With p38αR189A (Homo sapiens, UniProt Q16539, R189A) as the test system, provide measured inhibition at 10 µM for this compound: CCOC(=O)c1ccc(Nc2nc3nonc3nc2Nc2ccc(Oc3ccncc3)cc2)cc1
47%

With p38αR189A (Homo sapiens, UniProt Q16539, R189A) as the test system, provide measured inhibition at 10 µM for this compound: CCOC(=O)c1ccc(Nc2nc3nonc3nc2N2CCN(Cc3cccc(Cl)c3)CC2)cc1
14%

With p38αR189A (Homo sapiens, UniProt Q16539, R189A) as the test system, provide measured inhibition at 10 µM for this compound: CCOC(=O)c1ccc(Nc2nc3nonc3nc2N2CCC(Oc3ccncc3)CC2)cc1
19%

With p38αR189A (Homo sapiens, UniProt Q16539, R189A) as the test system, provide measured inhibition at 10 µM for this compound: Cc1cc(C(=O)NCC(C)C)ccc1Nc1nc2nonc2nc1N1CCC(Cc2ccccc2)CC1
38%
